- experiment summary: HTChem stab assay (chemical stability in buffer pH2, pH4 and pH7 vs DMSO reference)
- Type: physicochemical
- cond: 72 h, 50 µM, pH 7
test readout: Chemical stability data, Buffer pH7 (%)
Write the answer as a number in %, unit excluded.

Find the measured Chemical stability data, Buffer pH7 of CCc1nc2ncc(C)cn2c1C(=O)NCc1ccc(-c2nc3n(n2)CCC(O)C3)cc1 (stereo not shown) [Compound 29ab] and report it.
100

Provide only the value of recorded Chemical stability data, Buffer pH7 for CCc1nc2ncc(Cl)cn2c1C(=O)NCc1ccc(-c2nc3n(n2)CCC(C(F)(F)F)C3)cc1 (single isomer, unassigned) [Compound 10b]
92

Specify Chemical stability data, Buffer pH7 for CCc1nc2ncc(C)cn2c1C(=O)NCc1ccc(-c2nc3n(n2)CCC(C(F)(F)F)C3)c(C)c1 (stereo not shown) [Compound 23ab] and stop.
100

Consider the compound CCCC1CCn2nc(-c3ccc(CNC(=O)c4c(CC)nc5ncc(C)cn45)cc3)nc2C1 (stereo not shown) [Compound 28ab] and give its recorded Chemical stability data, Buffer pH7.
100

Please look at this compound and report its Chemical stability data, Buffer pH7: CCc1nc2ncc(C)cn2c1C(=O)NCc1ccc(-c2nc3n(n2)CC(C(F)(F)F)CC3)cc1 (stereo not shown) [Compound 24ab]
100

Give a short answer stating reported Chemical stability data, Buffer pH7 for CCc1nc2ncc(C)cn2c1C(=O)NCc1ccc(-c2nc3n(n2)CCC(OC)C3)cc1 (stereo not shown) [Compound 26ab] .
95

Identify measured Chemical stability data, Buffer pH7 associated with CCc1nc2ncc(C)cn2c1C(=O)NCc1ccc(-c2nc3n(n2)CCC(C)C3)cc1 (stereo not shown)
98

Return Chemical stability data, Buffer pH7 (reported value) for this compound: CCc1nc2ncc(Cl)cn2c1C(=O)NCc1ccc(-c2nc3n(n2)CCC(C(F)(F)F)C3)cc1 (stereo not shown) [Compound 10ab]
90

Give the reported Chemical stability data, Buffer pH7 for this compound. CCc1nc2ncc(C)cn2c1C(=O)NCc1ccc(-c2cc3n(n2)CCC(C(F)(F)F)C3)cc1 (stereo not shown) [Compound 20ab]
100

Quickly give me recorded Chemical stability data, Buffer pH7 for CCc1nc2ncc(C)cn2c1C(=O)NCc1ccc(-c2nc3n(n2)CCC(C(F)(F)F)C3)c(F)c1 (stereo not shown) [Compound 22ab]
98

Quote Chemical stability data, Buffer pH7 reported for CCc1nc2ncc(C)cn2c1C(=O)NCc1ccc(-c2nc3n(n2)CCC(C(F)(F)F)C3)cc1 (stereo not shown) [Compound 1ab] please.
100

Answer with the recorded Chemical stability data, Buffer pH7 for the compound listed here: CCc1nc2ncc(C)cn2c1C(=O)NCc1ccc(-c2nc3n(n2)CCCC3)c(F)c1 [Compound 32ab]
100

Tell me its Chemical stability data, Buffer pH7 given CCc1nc2ncc(C)cn2c1C(=O)NCc1ccc(-c2nc3n(c2C)CCC(C(F)(F)F)C3)cc1 (stereo not shown) [Compound 19ab] as the entry.
98

Please list Chemical stability data, Buffer pH7 recorded for the compound CCc1nc2nc(C)ccn2c1C(=O)NCc1ccc(-c2nc3n(n2)CCC(C(F)(F)F)C3)cc1 (single isomer, unassigned) [Compound 5a]
100

Specify measured Chemical stability data, Buffer pH7 for CCc1nc2ncc(OC)cn2c1C(=O)NCc1ccc(-c2nc3n(n2)CCC(C(F)(F)F)C3)cc1 (stereo not shown) .
100

Answer with reported Chemical stability data, Buffer pH7 of CCc1nc2ncc(Cl)cn2c1C(=O)NCc1ccc(-c2nc3n(n2)CCC(C(F)(F)F)C3)cc1 (single isomer, unassigned) [Compound 10a]
97

State its Chemical stability data, Buffer pH7 for this compound: CCc1nc2ncc(C)cn2c1C(=O)NCc1ccc(-c2nc3n(n2)CCC(OC(F)(F)F)C3)cc1 (stereo not shown) [Compound 33ab]
100

Please give measured Chemical stability data, Buffer pH7 of the following entry: CCc1nc2ncc(C)cn2c1C(=O)NCc1ccc(-c2cn3c(n2)CC(C(F)(F)F)CC3)cc1 (single isomer, unassigned)
100

Using the record for CCc1nc2nc(C)ccn2c1C(=O)NCc1ccc(-c2cn3c(n2)CC(C(F)(F)F)CC3)cc1 (stereo not shown) [Compound 34ab] , state its measured Chemical stability data, Buffer pH7.
93

Identify measured Chemical stability data, Buffer pH7 corresponding to CCc1nc2ncc(C)cn2c1C(=O)NCc1ccc(-c2nc3n(n2)CCC(C(F)F)C3)cc1 (stereo not shown) [Compound 25ab]
100

Give Chemical stability data, Buffer pH7 for the following compound: CCc1nc2nc(N)c(C)cn2c1C(=O)NCc1ccc(-c2nc3n(n2)CCC(C(F)(F)F)C3)cc1 (stereo not shown) [Compound 12ab]
100

Determine its reported Chemical stability data, Buffer pH7: CCc1nc2nc(C)ccn2c1C(=O)NCc1ccc(-c2nc3n(n2)CCC(C(F)(F)F)C3)cc1 (stereo not shown) [Compound 5ab]
96

Entry CCc1nc2ncc(C)cn2c1C(=O)NCc1ccc(-c2nc3n(n2)CCC(OCCOC)C3)cc1 (stereo not shown) [Compound 30ab] needs its Chemical stability data, Buffer pH7 filled in; supply it.
98

// fetch Chemical stability data, Buffer pH7 given entry CCc1nc2ncc(CN)cn2c1C(=O)NCc1ccc(-c2nc3n(n2)CCC(C(F)(F)F)C3)cc1 (stereo not shown) [Compound 16ab]
80

State its Chemical stability data, Buffer pH7: CCc1nc2nc(F)ccn2c1C(=O)NCc1ccc(-c2cn3c(n2)CC(C)CC3)cc1 (stereo not shown) [Compound 35ab]
98

Using known records, supply Chemical stability data, Buffer pH7 for CCc1nc2ncc(C)cn2c1C(=O)NCc1ccc(-c2nc3n(n2)CCC(C(F)(F)F)C3)cc1 (single isomer, unassigned) [Compound 1a]
100

Please indicate Chemical stability data, Buffer pH7 recorded for CCc1nc2ncc(C)cn2c1C(=O)NCc1ccc(-c2nc3n(n2)CCCC3)cc1 [Compound 31ab]
100

Give a short answer stating reported Chemical stability data, Buffer pH7 for CCc1nc2nc(C)c(C)cn2c1C(=O)NCc1ccc(-c2nc3n(n2)CCC(C(F)(F)F)C3)cc1 (stereo not shown) .
100

Indicate its recorded Chemical stability data, Buffer pH7; the compound in question is Cc1cnc2nc(C3CC3)c(C(=O)NCc3ccc(-c4nc5n(n4)CCC(C(F)(F)F)C5)cc3)n2c1 (stereo not shown)
100

Look up Chemical stability data, Buffer pH7 of CCc1nc2ncc(C)cn2c1C(=O)NCc1ccc(-c2nc3n(n2)CCC(C2CC2)C3)cc1 (stereo not shown) [Compound 27ab] and report it.
100

# return recorded Chemical stability data, Buffer pH7 for input CCc1nc2ncc(C)cn2c1C(=O)NCc1ccc(-c2nn3c(c2C)CC(C(F)(F)F)CC3)cc1 (stereo not shown) [Compound 21ab]
100
